tested on: T1, Mouse-Fc-tagged SARS-CoV2 S1-RBD (Sino Biologicals) recombinant protein (SARS-CoV-2, UniProt P0DTC2 319-541)
T1 construct: domain: S1-RBD
experiment: SPR, S1-RBD-mFc captured via anti-mouse-Fc antibody, 1:1 model
koff values by entry
Only the number, expressed in s⁻¹, is required.

Hello, please tell me recorded koff for this one: P043.A.00018.C02 (protein sample ID 450) (antibody, V domains shown) VH: QSVEESGGRLVTPGTPLTLTCTVSGFSLSSYAMSWVRQAPGKGLEWIGIINSGRSTYYASWAKGRFTISKTSTTVDLKITSPTTEDTATYFCARDATSIGYYRYYGMDPWGPGTLVTVSS VL: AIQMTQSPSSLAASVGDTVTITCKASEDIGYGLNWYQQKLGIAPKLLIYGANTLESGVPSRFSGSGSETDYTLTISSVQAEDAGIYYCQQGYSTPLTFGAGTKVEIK
0.000283

Hello, please tell me recorded koff for this one: P043.A.00023.E05 (antibody, V domains shown, also called 443; protein sample ID 443) VH: QSLEESGGRLVTPGTPLTLTCTVSGFSLSSYAMSWVRQAPGKGLEWIGIISSSGSTYYASWAKGRFTISKTSTTVDLKITSPTTEDTATYFCARDASSRGYYYYYGMDPWGPGTLVTVSS VL: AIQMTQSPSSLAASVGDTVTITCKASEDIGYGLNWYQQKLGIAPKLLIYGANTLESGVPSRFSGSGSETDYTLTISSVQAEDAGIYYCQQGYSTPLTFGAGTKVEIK
0.000263

Hello, please tell me recorded koff for this one: P043.A.00017.E07 (protein sample ID 449) (antibody, V domains shown) VH: QSVEESGGRLVTPGTPLTLTCTVSGFSLSSYAMSWVRQAPGKGLEWIGIISSSGSTYYASWAKGRFTISKTSTTVDLKITSPTTEDTATYFCARAMYPGYSTGVYNIWGPGTLVTVSL VL: AIQMTQSPSSLAASVGDTVTITCKASEDIGYELNWYQQKLGIAPKLLIYGANTLESGVPSRFSGSGSETDYTLTISSVQAEDAGIYYCQQGYNTPNTFGAGTKVEIK
0.000239

Hello, please tell me recorded koff for this one: P043.A.00024.C11 (protein sample ID 451) (antibody, V domains shown) VH: QSVEESGGRLVTPGTPLTLTCTVSGFSLSSYAMSWVRQAPGKGLEWIGIISSSGTTYYASWAKGPFTISKTSTTVDLKITSPTTEDTATYFCARGGAGYGYAHYYGMDPWGPGTLVTVSS VL: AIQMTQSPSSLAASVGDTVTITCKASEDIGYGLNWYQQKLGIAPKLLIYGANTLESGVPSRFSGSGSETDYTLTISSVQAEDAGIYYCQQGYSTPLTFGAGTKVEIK
0.000307
